// data source = BindingDB's records for doi:10.1016/j.bmcl.2021.128086

Molecular target: Type-2 angiotensin II receptor (Homo sapiens)
Sequence (P50052 whole entry): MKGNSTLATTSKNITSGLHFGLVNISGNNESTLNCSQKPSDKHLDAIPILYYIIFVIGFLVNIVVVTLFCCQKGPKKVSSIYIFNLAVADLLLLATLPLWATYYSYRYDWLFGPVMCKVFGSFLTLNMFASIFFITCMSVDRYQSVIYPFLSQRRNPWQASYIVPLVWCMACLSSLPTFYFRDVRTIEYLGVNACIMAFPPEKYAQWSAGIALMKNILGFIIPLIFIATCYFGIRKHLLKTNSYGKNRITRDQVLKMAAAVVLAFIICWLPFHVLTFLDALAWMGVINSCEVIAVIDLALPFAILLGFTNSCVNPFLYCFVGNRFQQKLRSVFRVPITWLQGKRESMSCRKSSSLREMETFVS
Experiment: Displacement of [125-I]-[Sar1, Ile8] from recombinant human AT2R transfected in human HEK293 cells incubated for 2 hrs by liquid scintillation counter analysis
Attribute measured: IC50 (nM)

substance=H-DRVYIYPF-OH attribute_measured=IC50 measurement=4
